Every entry's value here was drawn from patent US20230357364A1.

Target: SARS-CoV-2 spike on pseudovirus or live virus (USA-WA1/2020, WT) (SARS-CoV-2, UniProt P0DTC2 14-1273)
Assay: cell-based or functional assay
Classify as follows. Reported PSV neutralization IC50 greater than or equal to 0.06 µg/mL: criterion met. Reported PSV neutralization IC50 below: criterion not met.

[[record]]
binder = "L12.cP08D07 (antibody, V domains shown, human IgG1) VH: QVQLQESGPGLVKPSETLSLTCTVSGGSISSSSYYWGWIRQPPGKGLEWIGSIYYSGSTYYNPSLKSRVTISVDTSKNQFSLKLSSVTAADTAVYYCARQGDCSTTSCAYDYWGQGTLVTVSS VL: SYELTQPPSVSVSPGQTARITCSGDALPKQYAYWYQQKPGQAPVLVIYKDSERPSGIPERFSGSSSGTTATLTISGVQAEDEADYYCQSADSSGTYLVVFGGGTKLAVL"
assignedclass = "criterion met"

[[record]]
binder = "L12.bP11A11 (antibody, V domains shown, human IgG1) VH: QVQLVQSGAEVKKPGASVKVSCKASGYTFTGYYMHWVRQAPGQGLEWMGWISPNSGGTNYAQKFQGWVTMTRDTSVSTAYMELSRLRFDDTAVYYCATESWVYGSGSYSSGAFDIWGQGTMVTVSS VL: QSVLTQPPSASGSPGQSVTISCTGTSSDVGGYDYVSWYQQHPGKAPKLMIYEVSKRPSGVPDRFSGSKSGNTASLTVPGLQAEDEADYYCTSYAGSNNFVFGGGTKLIVL"
assignedclass = "criterion met"

[[record]]
binder = "L12.cP09D03 (antibody, V domains shown, human IgG1) VH: QVQLVQSGAEVKKPGASVKVSCKASGYIFSGYYTHWVRQAPGQGLEWMGWISPDSGGTNYAQKFQGRVTMTRDTSITTAYVELSGLRSDDTAVYYCARGPRYSGTYFDYWGQGTLVTVSS VL: QSVLTQPASVSGSPGQSITISCTGTSSDVGGYNYVSWYQQHPGKVPKLMIYDVSNRPSGVSNRFSGSKSGNTASLTISGLQAEDEADYYCSSYTSSSAQLFGGGTKLTVL"
assignedclass = "criterion met"

[[record]]
binder = "L12.bP11A06 (antibody, V domains shown) VH: EVQLVESGGGLIQPGGSLRLSCAASGLTVSSNYMSWVRQAPGKGLEWVSVIYSGGSTFYADSVKGRFTISRDNSKNTLYLQMNSLRAEDTAVYYCARDLDVYGLDVWGQGTTVTVSS VL: DIVMTQSPSFLSASVGDRVTITCRASQGISSYLAWYQQKPGKAPKLLIYAASTLQSGVPSRFSGSGSGTEFTLTISSLQPEDFATYYCQQLNSYPPKFTFGPGTKVEIK"
assignedclass = "criterion not met"

